Data provenance is ChEMBL document CHEMBL3045318.

Each record here notes measured MIC.
test system: Candida; assay: Antimicrobial activity against Candida-51 after 72 to 96 hr by serial dilution method; assay type: functional
Output spec: scalar in µg/mL, unitless text.

CC1C(=O)C(C)C(c2ccco2)NC1c1ccco1 (configuration not stated) ... 50

Sample CC1C(=O)CC(c2ccco2)NC1c1ccco1 (configuration not stated) — what was its MIC?
100

Sample CCC1C(=O)CC(c2ccco2)NC1c1ccco1 (configuration not stated) — what was its MIC?
100

Sample C[C@@H]1[C@H](O)[C@@H](C)/C=C/C=C/C=C/C=C/C=C/C=C/C=C/[C@H](O[C@@H]2O[C@H](C)[C@@H](O)[C@H](N)[C@@H]2O)C[C@@H]2O[C@](O)(C[C@@H](O)C[C@@H](O)[C@H](O)CC[C@@H](O)C[C@@H](O)CC(=O)O[C@H]1C)C[C@H](O)[C@H]2C(=O)O [AMPHOTERICIN B] — what was its MIC?
25

Sample CCC1/C(=N\O)CC(c2ccco2)NC1c1ccco1 (configuration not stated) — what was its MIC?
12.5

Sample CC1/C(=N\O)CC(c2ccco2)NC1c1ccco1 (configuration not stated) — what was its MIC?
12.5

Sample CC1C(=NO)C(C)C(c2ccco2)NC1c1ccco1 (configuration not stated) — what was its MIC?
12.5
